Target: T1, Human TNFR2-His (Sino 10417-H08H) (human, UniProt P20333 23-257)
T1 construct: Bought protein; also called recombinant human TNFR2 protein; not shown: His tag
T1 sequence (looked up): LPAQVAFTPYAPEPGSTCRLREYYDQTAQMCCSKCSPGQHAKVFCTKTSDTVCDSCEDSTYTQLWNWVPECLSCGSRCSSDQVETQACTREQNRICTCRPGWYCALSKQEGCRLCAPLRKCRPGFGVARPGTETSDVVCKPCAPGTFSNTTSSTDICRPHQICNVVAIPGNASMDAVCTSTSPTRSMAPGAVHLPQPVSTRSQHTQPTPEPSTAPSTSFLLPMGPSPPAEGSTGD
Assay: SPR (Biacore T200), antibody captured on Protein A chip
Endpoint: kon (M⁻¹ s⁻¹)
Answers are plain numbers, in M⁻¹ s⁻¹.

- Binder: "224-Hu5 (antibody, V domains shown, Humanized form of #224; also called VH9 + VL9) VH: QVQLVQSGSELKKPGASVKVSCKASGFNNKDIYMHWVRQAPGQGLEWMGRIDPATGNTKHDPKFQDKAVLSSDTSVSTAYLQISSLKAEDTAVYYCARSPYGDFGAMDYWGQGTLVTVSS VL: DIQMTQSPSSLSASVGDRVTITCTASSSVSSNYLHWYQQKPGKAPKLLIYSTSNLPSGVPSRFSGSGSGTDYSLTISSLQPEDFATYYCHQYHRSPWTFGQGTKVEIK"
  Measured Value: 159000

# lookup: kon of 219-Hu1 (antibody, V domains shown, also called VH3 + VL5) VH: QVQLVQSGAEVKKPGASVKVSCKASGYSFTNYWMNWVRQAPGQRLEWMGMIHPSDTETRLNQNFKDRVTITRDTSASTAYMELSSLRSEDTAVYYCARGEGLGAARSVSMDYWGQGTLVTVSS VL: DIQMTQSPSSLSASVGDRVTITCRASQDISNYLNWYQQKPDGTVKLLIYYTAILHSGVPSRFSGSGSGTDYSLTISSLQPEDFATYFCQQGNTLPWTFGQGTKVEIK
433000

# credit: patent US20240109974A1
